Where do these numbers come from? They come from patent US10308960B2.

- Test system: SLC45A2-AMACR transformed PC3 cells treated with tetracycline (PC3/SLAM tet+)
- assay: Ebselen cell growth inhibition, PC3/SLAM tet+
- Assay type: cell-based, human
- experimental-context: Homo sapiens, PC-3; PC3/SLAM tet+

compound	measurement-unit	IC50
O=c1c2ccccc2[se]n1-c1ccccc1 [Ebselen, ebselen]	µM	37
